Property: inhibition; scope: individual compounds
- MEASUREMENT_TARGET: SARS-CoV-2 Main Protease (SARS-CoV-2) (UniProt P0DTD1)
- CONDITION_PARAMETERS: 50.0 µM
# unit: % | format: bare number

Completed entries (count: 2):
C=CC(=O)N(c1ccc(S(F)(F)(F)(F)F)cc1)C(C(=O)Nc1ccc(OC)cc1)c1cccnc1 (stereo not given) = 30.6
NS(=O)(=O)c1ccc(N2CCC(c3ccsc3)CC2)cc1 = 17.1

*Q* Item: CN(C)C(=O)c1cc2cnc(Nc3ccc(N4CCNCC4)cn3)nc2n1C1CCCC1 Test system: SARS-CoV-2 Main Protease (SARS-CoV-2) (UniProt P0DTD1) Read-out: inhibition Value: ?
*A* -4.06

*Q* Item: C=CC(=O)N(c1ccc(C(C)OC)cc1)C(C(=O)NC(C)(C)C)c1cccnc1 (stereo not given) Test system: SARS-CoV-2 Main Protease (SARS-CoV-2) (UniProt P0DTD1) Read-out: inhibition Value: ?
*A* 15.9

*Q* Item: COc1ccncc1NC(=O)C(C)(C)c1cc(F)cc(C#N)c1 Test system: SARS-CoV-2 Main Protease (SARS-CoV-2) (UniProt P0DTD1) Read-out: inhibition Value: ?
*A* 30.8
